Target: pan-HDAC
Assay: In vitro enzyme inhibition assay - HDAC (HDAC-Glo I/II), pan-HDAC
Assay type: biochemical
Structures can show the parent of a compound that is named as a salt.
ATTRIBUTE_MEASURED: log10(IC50) (log10 of the value in nM)
Annotation: log10 of IC50, nM basis.

Solved entries:
N#Cc1ccc(-c2c(-c3ccc(C(F)(F)F)c(O)c3)cnc(N3CCC(NCc4ccc(/C=C/C(=O)NO)cc4)CC3)c2C#N)cc1F [Example 129] | 1.26
COc1ccc(-c2c(OC)cc(N3CCC(N)CC3)nc2-c2ccc(C#N)c(F)c2)cc1OCCNCc1ccc(/C=C/C(=O)NO)cc1 [Example 30, hydrochloride] | 1.26
COc1ccc(-c2c(OCCCCCCC(=O)NO)cc(N3CCC(N)CC3)nc2-c2ccc(C#N)c(F)c2)cc1F [Example 3, hydrochloride] | 1.46
N#Cc1ccc(-c2nc(N3CCC(N)CC3)n3ccnc3c2-c2ccc(OCCCCCCC(=O)NO)c(O)c2)cc1F [Example 21, hydrochloride] | 2.08

For each of the compounds below, note its log10(IC50).
1. COc1ccc(-c2cnc(N3CCC(NCc4ccc(/C=C/C(=O)NO)nc4)CC3)c(OC)c2-c2ccc(C#N)nc2)cc1O [Example 266, formate]
2. N#Cc1ccc(-c2nc(N3CCC(N)CC3)cc(O)c2-c2ccc(OCCCCCCC(=O)NO)c(O)c2)cc1F [Example 19, hydrochloride]
3. COc1ccc(-c2cnc(N3CCC(NCc4ccc(/C=C/C(=O)NO)cc4)CC3)c(C#N)c2-c2cnc(C#N)cn2)cc1O [Example 256, formate]

Data returned:
1. -0.80
2. 2.24
3. -0.59

###

System: NCI-H526 cells
Experiment: In vitro cell inhibition assay - NCI-H526 cell proliferation (CellTiter-Glo)
Type: cell-based
Details: Homo sapiens, NCI-H526, 120 h, H526 small cell lung cancer cell proliferation, 5 days
Counter-ions that a name gives are not always drawn.
For each of the molecules below, state its pIC50.
Give bare numbers, as −log10 of the molar value.

Value sought for every listed molecule: pIC50.
1. N#Cc1ccc(-c2c(-c3ccc(/C=C/C(=O)NO)c(O)c3)cnc(N3CCC(N)CC3)c2C#N)cc1F [Example 62, hydrochloride]
2. N#Cc1ccc(-c2c(-c3ccc(N4CCOCC4)c(O)c3)cnc(N3CCC(NCc4ccc(/C=C/C(=O)NO)cc4)CC3)c2C#N)cc1F
3. COc1ccc(-c2cnc(N3CCCC(NCc4ccc(/C=C/C(=O)NO)cc4)CC3)c(C#N)c2-c2ccc(C#N)c(F)c2)cc1O (stereo not drawn) [Example 149, formate]
4. COc1ccc(-c2cnc(N3CCC(NCc4ccc(/C=C/C(=O)NO)cc4)CC3)c(C#N)c2-c2ccc([N+](=O)[O-])nc2)cc1O [Example 248, formate]
5. CC(C)(O)COc1ccc(-c2cnc(N3CCC(NCc4ccc(/C=C/C(=O)NO)cc4)CC3)c(CC#N)c2-c2ccc(C#N)c(F)c2)cc1O [Example 218, formate]
6. COc1ccc(-c2cnc(N3CCC(NCc4ccc(/C=C/C(=O)NO)cc4)CC3)c(OC)c2-c2ccc(C#N)nc2)cc1O [Example 263, formate]

Data returned:
1. 5.92
2. 7.91
3. 7.84
4. 8.04
5. 7.45
6. 8.65

Would you mind giving pIC50 for every molecule in the list below?
1. COc1ccc(-c2cnc(N3CCC(NC(C)(C)c4ccc(/C=C/C(=O)NO)cc4)CC3)c(C#N)c2-c2ccc(C#N)c(F)c2)cc1O [Example 179, formate]
2. COc1cc(F)c(-c2cnc(N3CCC(NCc4ccc(/C=C/C(=O)NO)cn4)CC3)c(C#N)c2-c2ccc(C#N)nc2)cc1O [Example 240, formate]
3. COc1ccc(-c2cnc(N3CCC(NC(C)c4ccc(/C=C/C(=O)NO)cc4)CC3)c(C#N)c2-c2ccc(C#N)c(F)c2)cc1O (stereo not drawn) [Example 210, formate]
4. COc1ccc(-c2cnc(N3CCC(NCc4ccc(/C=C/C(=O)NO)cc4)CC3)c(C#N)c2-c2cnc(C#N)c(C)c2)cc1O [Example 247, formate]
5. COc1ccc(-c2cnc(N3CCC(NCc4cnc(/C=C/C(=O)NO)cn4)CC3)c(C#N)c2-c2ccc(C#N)c(F)c2)cc1O [Example 133, trifluoroacetate]
6. N#Cc1ccc(-c2c(-c3ccc4cn[nH]c4c3)cnc(N3CCC(NCc4ccc(/C=C/C(=O)NO)cc4)CC3)c2C#N)cc1F [Example 142, formate]
7. N#Cc1ccc(-c2cnc(N3CCC(NCc4ccc(/C=C/C(=O)NO)cc4)CC3)c(C#N)c2-c2ccc(C#N)c(F)c2)cc1O [Example 113, formate]
8. CC(C)(O)COc1ccc(-c2cnc(N3CCC(NCc4ccc(/C=C/C(=O)NO)nc4)CC3)c(C#N)c2-c2ccc(C#N)c(F)c2)cc1O

Data returned:
1: 8.35; 2: 7.22; 3: 8.23; 4: 8.12; 5: 7.34; 6: 8.34; 7: 7.10; 8: 8.39

// recorded pIC50 for "COc1ccc(-c2cnc(N3CCC(NCc4ccc(CCC(=O)NO)c(F)c4)CC3)c(C#N)c2-c2ccc(C#N)c(F)c2)cc1O" : 7.69

###

Target: pan-HDAC
Experiment: In vitro enzyme inhibition assay - HDAC (HDAC-Glo I/II), pan-HDAC
Format: biochemical
Where a name gives a salt, the structure may show the parent alone.
# 1.0 = IC50 below 5 nM (exclusive); 0.0 = IC50 at/above 5 nM

A selection of reference data follows.
COc1ccc(-c2cnc(N3CCC(NCc4ccc(/C=C/C(=O)NO)cc4)CC3)nc2-c2ccc(C#N)c(F)c2)cc1O | 0.0
N#Cc1ccc(-c2c(-c3ccc(OC(F)F)c(O)c3)cnc(N3CCC(NCc4cnc(/C=C/C(=O)NO)nc4)CC3)c2C#N)cc1F [Example 145, formate] | 0.0
N#Cc1ccc(-c2c(-c3ccc4cn[nH]c4c3)cnc(N3CCC(NCc4ccc(/C=C/C(=O)NO)nc4)CC3)c2C#N)cc1F [Example 182, formate] | 1.0
COc1ccc(-c2cnc(N3CCC(NCc4ccc(SCC(=O)NO)cc4)CC3)c(C#N)c2-c2ccc(C#N)c(F)c2)cc1O | 1.0

Data request: Record COc1ccc(-c2cnc(N3CCC(CNCc4ccc(/C=C/C(=O)NO)cc4)C3)c(C#N)c2-c2ccc(C#N)c(F)c2)cc1O (centres unmarked) [Example 228, hydrochloride] : is its IC50 strictly below 5 nM?
Data returned: 0.0

###

Target: pan-HDAC
Experiment: In vitro enzyme inhibition assay - HDAC (HDAC-Glo I/II), pan-HDAC
Assay type: biochemical
Where a name gives a salt, the structure may show the parent alone.
Please provide measured IC50 for the entries that follow.
One number for each entry, in nM.

Sample records with IC50:
N#Cc1ccc(-c2c(-c3ccc(Br)c(O)c3)cnc(N3CCC(NCc4ccc(/C=C/C(=O)NO)cc4)CC3)c2C#N)cc1F [Example 127, formate] | 12.4
COc1ccc(-c2cnc(N3CCC(NCc4ccc(/C=C/C(=O)NO)cc4OC)CC3)c(C#N)c2-c2ccc(C#N)c(F)c2)cc1O [Example 132, formate] | 3.86

Please report IC50 for every entry that follows.
1. COc1ccc(-c2cnc(N3CCC(NCc4ccc(/C=C(\F)C(=O)NO)cc4)CC3)c(C#N)c2-c2ccc(C#N)nc2)cc1O
2. CC(C)(O)COc1ccc(-c2cnc(N3CCC(NCc4ccc(/C=C/C(=O)NO)c(C#N)c4)CC3)c(C#N)c2-c2ccc(C#N)c(F)c2)cc1O

Data returned:
0.77
7.8

###

Biological target: LSD1 (Homo sapiens (Human), UniProt O60341)
pIC50: −log10 of the molar value. Counter-ions that a name gives are not always drawn.
Returns one of true or false; true when pIC50 is >= 9.

Below, 3 compounds whose answers are already recorded.
CC(NC1CCN(c2ncc(-c3ccc(OCC(C)(C)O)c(O)c3)c(-c3ccc(C#N)c(F)c3)c2C#N)CC1)c1ccc(/C=C/C(=O)NO)cc1 (centres unmarked) [Example 235, formate] | false
COc1ccc(-c2cnc(N3CCC(NCc4cnc(/C=C/C(=O)NO)nc4)CC3)c(C#N)c2-c2ccc(C#N)c(F)c2)cc1O [Example 106, formate] | false
COc1ccc(-c2cnc(N3CCC(NCc4ccc(/C=C/C(=O)NO)cc4OC)CC3)c(C#N)c2-c2ccc(C#N)c(F)c2)cc1O [Example 132, formate] | false

Data request: Item COc1ccc(-c2cnc(N3CCC(NCc4ccc(/C=C/C(=O)NO)cc4)CC3)c(C#N)c2-c2cnc(C#N)cn2)cc1O [Example 256, formate] with pIC50 of 9 or above?
Data returned: false

Data request: In plain terms: is recorded pIC50 at least 9 for "N#Cc1ccc(-c2c(-c3ccc4cn[nH]c4c3)cnc(N3CCC(NCc4cnc(/C=C/C(=O)NO)nc4)CC3)c2C#N)cc1F" ?
Data returned: true

Data request: For this compound, is measured pIC50 9 or higher? "COc1ccc(-c2cnc(N3CCC(NCCNc4ncc(C(=O)NO)cn4)CC3)c(C#N)c2-c2ccc(C#N)c(F)c2)cc1O"
Data returned: true

Data request: Quick check, pIC50 >= 9? COc1ccc(-c2cnc(N3CCC(N(C)Cc4ccc(/C=C/C(=O)NO)cc4)CC3)c(C#N)c2-c2ccc(C#N)c(F)c2)cc1O [Example 42, formate]
Data returned: true

Data request: Exam item: decide whether the reported pIC50 for COc1ccc(-c2cnc(N3CCC(NCc4ccc(/C=C/C(=O)NO)c(F)c4)CC3)c(C#N)c2-c2ccc(C#N)c(F)c2)cc1O [Example 200, formate] is at least 9.
Data returned: true
